// provenance: patent US20260242735A1

target: human CD33 S131Q (human, UniProt P20138 18-364); assay: flow cytometry, HEK293-T, IgG;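 also: CD33 point mutants transiently expressed, antibody binding measured by fluorescence in duplicate, background subtracted and scaled to binding on wild-type CD33 as 100%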
Sequence (P20138 18-364 S131Q limits assumed): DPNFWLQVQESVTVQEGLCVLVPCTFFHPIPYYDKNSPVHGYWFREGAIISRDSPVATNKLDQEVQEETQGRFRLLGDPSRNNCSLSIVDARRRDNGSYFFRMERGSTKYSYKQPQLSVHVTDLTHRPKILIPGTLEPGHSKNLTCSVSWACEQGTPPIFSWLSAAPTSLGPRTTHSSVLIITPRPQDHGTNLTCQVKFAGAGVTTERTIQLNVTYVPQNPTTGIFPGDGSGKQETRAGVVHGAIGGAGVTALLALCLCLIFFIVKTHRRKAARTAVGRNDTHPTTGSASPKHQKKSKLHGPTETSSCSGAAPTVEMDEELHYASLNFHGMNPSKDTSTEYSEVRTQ
Listing of entries alongside the reported Mean % WT Binding.
Report as a plain number; the unit % WT binding is understood.

Below, 3 binders whose answers are already recorded.
[
  {
    "binder": "Refmab #4 (antibody, human IgG1, V domains shown, tested in IgG format) VH: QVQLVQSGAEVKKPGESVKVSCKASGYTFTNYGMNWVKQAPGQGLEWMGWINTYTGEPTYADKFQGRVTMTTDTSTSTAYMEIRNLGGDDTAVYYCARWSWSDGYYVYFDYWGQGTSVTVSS VL: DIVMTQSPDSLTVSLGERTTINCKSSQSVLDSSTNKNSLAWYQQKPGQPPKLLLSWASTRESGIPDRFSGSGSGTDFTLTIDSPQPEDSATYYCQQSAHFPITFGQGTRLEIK",
    "Mean % WT Binding / % WT binding": 97.3
  },
  {
    "binder": "Refmab #2 (antibody, human IgG1, V domains shown, tested in IgG format) VH: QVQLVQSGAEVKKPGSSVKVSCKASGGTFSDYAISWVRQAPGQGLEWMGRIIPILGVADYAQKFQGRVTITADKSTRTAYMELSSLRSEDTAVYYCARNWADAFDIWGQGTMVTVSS VL: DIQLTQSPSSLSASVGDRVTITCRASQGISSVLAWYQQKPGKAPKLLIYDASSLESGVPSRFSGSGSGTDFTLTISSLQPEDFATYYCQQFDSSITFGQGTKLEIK",
    "Mean % WT Binding / % WT binding": 110
  },
  {
    "binder": "Refmab #3 (antibody, human IgG1, V domains shown, tested in IgG format) VH: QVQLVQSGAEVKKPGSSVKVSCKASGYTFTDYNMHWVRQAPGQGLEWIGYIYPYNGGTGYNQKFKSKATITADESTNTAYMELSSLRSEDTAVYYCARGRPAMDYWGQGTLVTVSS VL: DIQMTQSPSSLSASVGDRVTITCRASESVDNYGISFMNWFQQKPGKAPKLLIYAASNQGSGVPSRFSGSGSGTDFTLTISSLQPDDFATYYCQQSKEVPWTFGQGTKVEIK",
    "Mean % WT Binding / % WT binding": 93.9
  }
]

# input binder: Refmab #1 (antibody, human IgG1, V domains shown, tested in IgG format; also called hP67.6) VH: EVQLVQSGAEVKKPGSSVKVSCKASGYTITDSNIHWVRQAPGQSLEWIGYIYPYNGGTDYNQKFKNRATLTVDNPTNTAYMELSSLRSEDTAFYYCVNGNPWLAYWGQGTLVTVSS VL: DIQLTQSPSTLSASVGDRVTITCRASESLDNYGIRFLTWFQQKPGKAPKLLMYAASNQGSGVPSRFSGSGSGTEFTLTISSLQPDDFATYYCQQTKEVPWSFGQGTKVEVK ; wanted: its Mean % WT Binding
101
